PROTOCOL DETAILS: Lipid nanoparticle size by dynamic light scattering (Malvern Zetasizer Nano ZS)
Format: physicochemical
TEST CONDITIONS: LNP: cationic lipid/DSPC/cholesterol/PEG-lipid 50:10:38.5:1.5, hEPO mRNA; Table 3
Provide the recorded polydispersity for the entries that follow.
Please give only the number in your answer, with no unit.

*Q* Which polydispersity reading was recorded for the compound CCCCCCCCC(CCCCCC)C(=O)OCCCCCCN(CCCCCCOC(=O)C(CCCCCC)CCCCCCCC)CCN(CCO)C1CCC1 (centres unmarked) ?
*A* 0.032

*Q* What value of polydispersity has been recorded for this entry: CCCCCCCCCCC(CCCCCC)COC(=O)CCCCN(CCCCC(=O)OCC(CCCCCC)CCCCCCCCCC)CCN(CCO)C1CCC1 (centres unmarked)
*A* 0.065

*Q* Give its polydispersity value. Item: CCCCCCCCC(CCCCCC)COC(=O)CCCCCN(CCCCCC(=O)OCC(CCCCCC)CCCCCCCC)CCN(CCO)C1CCC(F)(F)CC1 (centres unmarked)
*A* 0.14

*Q* What value of polydispersity has been reported for the following compound? CCCCCCCCC(CCCCCC)CC(=O)COCCCCN(CCCCCOC(=O)CC(CCCCCC)CCCCCCCC)CCN(CCO)C1CCCCCC1 (centres unmarked)
*A* 0.133

*Q* // lookup polydispersity for CCCCCCCCC(CCCCCC)CNC(=O)CCCCCN(CCCCCC(=O)OCC(CCCCCC)CCCCCCCC)CCN(CCO)C1CC1 (centres unmarked)
*A* 0.06

*Q* Record request: polydispersity value, item CCCCCCCCC(CCCCCC)CNC(=O)CCCCCN(CCCCCC(=O)OCC(CCCCCC)CCCCCCCC)CCN(CCO)C1CCC1 (centres unmarked)
*A* 0.174

*Q* Sample CCCCCCCCC(CCCCCCCC)CC(=O)NCCCCCN(CCCCCOC(=O)CC(CCCCCCCC)CCCCCCCC)CCN(CCO)C1CCCC1 — what was its polydispersity?
*A* 0.032

*Q* Item CCCCCCCCC(CCCCCC)CC(=O)NCCCCCN(CCCCCOC(=O)CC(CCCCCC)CCCCCCCC)CCN(CCO)C1CCCCCC1 (centres unmarked) has what recorded polydispersity?
*A* 0.129
